Molecular target: T1, human TREK-2 protein (residues Gly67 to Glu340) (human)
T1 chain: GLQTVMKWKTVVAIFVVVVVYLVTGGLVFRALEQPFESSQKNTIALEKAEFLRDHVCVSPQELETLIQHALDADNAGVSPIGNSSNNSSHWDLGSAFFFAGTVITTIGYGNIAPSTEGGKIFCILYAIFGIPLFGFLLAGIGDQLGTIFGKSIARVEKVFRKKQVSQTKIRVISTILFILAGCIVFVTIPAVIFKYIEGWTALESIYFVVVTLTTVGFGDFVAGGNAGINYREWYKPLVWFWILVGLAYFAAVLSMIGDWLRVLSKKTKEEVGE
Readout: binding result

Take a look at these entries with their results.
Binder	binding result
CA10754 (VHH) VHH: QVQLVESGGGLVQAGGSLRLSCAASGRTFSTYAMSWFRQAPGKEREFVARIRWSTTRTSSTYYADSVKGRFTISGDNAKNTVYLQMDSLKPEDTAVYYCAAVINPYSSAYEYWGQGTQVTVSS	binds
CA10772 (VHH) VHH: QVQLVESGGGLVQPGGSLRLSCAASGFTFSAYAMRWHRQAPGKGLEWVSSIDHSGAWPNYADSVKGRFTISRDNAKNTLYLQMDSLKPEDTAVYYCSKAGFRGQGTQVTVSS	binds
CA10778 (VHH) VHH: QVQLVESGGGLVQAGGSLRLSCAASRGIFTITAMSWHRQAPGKQRELVASITRRGRTNIADSVKDRFAISWDKNTVYLQMNSLKPEETAVYYCAALTDAPMNTYWGQGTQVTVSS	binds
CA10753 (VHH) VHH: QVQLVESGGGLVQAGGSLRLSCAASGRTFSTYAMSWFRQAPGKEREFVARIRWSGTSTAYADSVKGRFFISGDNAKNTVYLQMNSLKPEDTAVYYCAAVINPYSSAYEYWGQGTQVTVSS	binds
CA10773 (VHH) VHH: QVQLVESGGGLVQPGGSLRLSCAASGFTFSSYPMSWARQAPGKGLEWVSAINRGGSSTNYADSVKGRFTISRDNAKNTLYLQMDSLKPEDTAVYYCFKGGTRGQGTQVTVSS	binds

Could you now consider this next binder?
Challenge: Quick check: binding result of CA10777 (VHH) VHH: QVQLVESGGGLVQPGGSLRLSCAASGLIARLIDWGWYRQAPGKQRELVAAITAGGRTNYTDSVKGRFTISRDDPKNTVYLQMSALKPEDTAVYYCCVDFRSYAGKQYHYCGQGTQVTVSS ?
Response given: binds
